B1: VH:VL chains; a variant is named by its letters at X, in order (parent)
chain 1: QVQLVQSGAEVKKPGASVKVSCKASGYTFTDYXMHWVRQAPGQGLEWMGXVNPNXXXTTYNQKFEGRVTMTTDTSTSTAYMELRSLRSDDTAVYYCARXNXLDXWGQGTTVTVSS
chain 2: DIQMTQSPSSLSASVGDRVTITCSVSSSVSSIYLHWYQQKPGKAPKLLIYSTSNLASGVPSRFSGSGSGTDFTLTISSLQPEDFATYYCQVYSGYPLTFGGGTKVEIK

- Variants of: B1
- Test Name: yeast display scFab, FACS + sequencing

[
  {
    "Variant Key": "YRGRGVVD",
    "non-specific binding call": "binds"
  },
  {
    "Variant Key": "VAEKGDVF",
    "non-specific binding call": "no binding"
  },
  {
    "Variant Key": "VTEGGALA",
    "non-specific binding call": "no binding"
  },
  {
    "Variant Key": "YRRRGDAD",
    "non-specific binding call": "binds"
  },
  {
    "Variant Key": "ARERGDGY",
    "non-specific binding call": "no binding"
  },
  {
    "Variant Key": "VRTADDGA",
    "non-specific binding call": "no binding"
  },
  {
    "Variant Key": "DTTGSDWA",
    "non-specific binding call": "no binding"
  },
  {
    "Variant Key": "VRAGDAGA",
    "non-specific binding call": "no binding"
  },
  {
    "Variant Key": "VAGTDAGD",
    "non-specific binding call": "no binding"
  },
  {
    "Variant Key": "FRGRGYAV",
    "non-specific binding call": "binds"
  },
  {
    "Variant Key": "VKGRASAS",
    "non-specific binding call": "no binding"
  },
  {
    "Variant Key": "AKKRGAWS",
    "non-specific binding call": "binds"
  },
  {
    "Variant Key": "VETEGDVY",
    "non-specific binding call": "no binding"
  },
  {
    "Variant Key": "VTEENDGY",
    "non-specific binding call": "no binding"
  },
  {
    "Variant Key": "SRKGAASD",
    "non-specific binding call": "binds"
  },
  {
    "Variant Key": "ATKTAFVS chain 1 M34I",
    "non-specific binding call": "no binding"
  },
  {
    "Variant Key": "AKGRAAAS chain 1 D103N",
    "non-specific binding call": "binds"
  },
  {
    "Variant Key": "YRAGGYGY",
    "non-specific binding call": "binds"
  },
  {
    "Variant Key": "ARRRGAWY",
    "non-specific binding call": "binds"
  },
  {
    "Variant Key": "YRTRGAAA",
    "non-specific binding call": "binds"
  },
  {
    "Variant Key": "FATRASGD",
    "non-specific binding call": "binds"
  },
  {
    "Variant Key": "DGTGGAGA",
    "non-specific binding call": "no binding"
  }
]
